assay: in vitro liver microsome metabolic stability, rat; assay type: in vitro ADME; conditions: Rat liver microsomes, 37°C
Label MET when Liver microsome T1-2 (min) Rat < 90 min; otherwise NOT MET.

CN(C)C(=O)c1nccc(Nc2c(N[C@@H](c3nc(C(F)F)ccc3F)C3(C)CC(F)(F)CO3)c(=O)c2=O)c1O (stereo partly shown) | NOT MET
CC#CC(Nc1c(Nc2ccnc(C(=O)N(C)C)c2O)c(=O)c1=O)C1(C)CCC(F)(F)C1 (stereo not shown) | NOT MET
CN(C)C(=O)c1nccc(Nc2c(N[C@@H](C#CC3CC3)C3(C)CCCC3)c(=O)c2=O)c1O | NOT MET
Cc1cccnc1C(Nc1c(Nc2ccc(Cl)c(C(=O)N(C)C)c2O)c(=O)c1=O)C1(C)CC(F)(F)CO1 (stereo not shown) | NOT MET
CN(CC(F)(F)F)C(=O)c1nccc(Nc2c(N[C@@H](c3ccc(F)cn3)C3(C)CCCC3)c(=O)c2=O)c1O | MET
CN(C)C(=O)c1nccc(Nc2c(N[C@@H](c3cccc(Cl)n3)C3(C)CCCC3)c(=O)c2=O)c1O | NOT MET
